- Test system: CCRIS mutagenicity, Ames/micronucleus/aberration tests
- assay_comment: CCRIS mutagenicity studies
- experimental_parameters: Test System: AMES SALMONELLA TYPHIMURIUM; Strain/Indicator: TA98; Metabolic Activation: RAT, LIVER, S-9, PCB; Method: PREINCUBATION
The source made the active and inactive calls. No rule for the calls is given here.
Outcome codes: class 1 = active, class 0 = inactive

chemical_string	qualitative_label
[O-][n+]1cc2cnccc2cn1	class 1
O=[N+]([O-])c1ccc(Nc2ncnc3nc[nH]c23)cc1	class 0
Nc1ccc(Oc2ccc(N)c(Cl)c2)cc1Cl	class 1
Cc1nc2ccc(N(C)C)c(C)c2nc1C	class 1
Cc1c(C(C)C)c(=O)n(-c2ccccc2)n1C	class 0
Nc1ccc(Cl)cc1N	class 1
Nc1nc(-c2ccc([N+](=O)[O-])cc2)nc2c1ncn2-c1ccc([N+](=O)[O-])cc1	class 1
Cc1cc(Cc2ccc(N)c(C)c2)ccc1N	class 0
CC(=O)OCc1c(O)cc2c(c1O)C(=O)c1ccccc1C2=O	class 1
O=C(O)c1ccccc1	class 0
C1COCCN1	class 0
CCOC(=O)c1cc(Cc2ccc(N)c(C(=O)OCC)c2)ccc1N	class 0
CC(C)(C)c1cc(O)ccc1O	class 0
Nc1ncnc2nc(-c3ccc([N+](=O)[O-])cc3)[nH]c12	class 1
Cc1c(N(C)CS(=O)(=O)O)c(=O)n(-c2ccccc2)n1C	class 0
COC(=O)c1cc(Cc2ccc(N)c(C(=O)OC)c2)ccc1N	class 1
Nc1cccc2nc3cccc(N)c3nc12	class 0
CN1CCOCC1	class 0
CC(C)(C)C1=CC(=O)C=CC1=O	class 0
NCCN1CCNCC1	class 0
CC(C)Sc1cc(Cc2ccc(N)c(SC(C)C)c2)ccc1N	class 1
Nc1ccc2nc3c(N)cccc3nc2c1	class 1
CNc1ccc2nc(C)c(C)nc2c1C	class 1
O=[N+]([O-])c1ccc(CNc2ncnc3nc[nH]c23)cc1	class 0
O=C1c2ccccc2C(=O)c2c(O)ccc(O)c21	class 0
Cc1cc(O)c2c(c1)C(=O)c1cccc(O)c1C2=O	class 0
